The next entries give measured Ki for Adenosine deaminase (Bos taurus).

Prompt: Note Ki for the molecule shown: OCC1CCC(n2cnc3c(NC4CCCC4)cc(Cl)nc32)O1 (stereo not given)
Response: > 100 µM

Prompt: Note Ki for the molecule shown: CNc1cc(Cl)nc2c1ncn2C1O[C@H](CO)[C@@H](O)[C@H]1O (stereo not given in full)
Response: 69 µM

Prompt: Note Ki for the molecule shown: OC[C@H]1OC(n2cnc3c(NC4CCCCCC4)cc(Cl)nc32)[C@H](O)[C@@H]1O (stereo not given in full)
Response: > 100 µM

Prompt: Note Ki for the molecule shown: "OC[C@H]1O[C@@H](n2cnc3c(NC4CCCCC4)cc(Cl)nc32)C[C@@H]1O"
Response: > 100 µM

Prompt: Note Ki for the molecule shown: Nc1cc(Cl)nc2c1ncn2C1CCC(CO)O1 (stereo not given)
Response: > 100 µM
